Where do the numbers come from? From ChEMBL document CHEMBL3885881.

Species: Rattus norvegicus
Experiment: DrugMatrix - Regimen: Daily Repeat
Type: toxicity, organism-based, Sprague-Dawley
Set-up: regimen Daily Repeat, gender Male, age 6-8 weeks
Settings: in vivo, iv, 0 mg/kg, 72 h, tissue Blood, dose level Control, time 3 day, vehicle 100 % SALINE
Starred links: 1 amine or outer side, 2 acyl side, 3 side chain; linkers in the order of their positions; H or OH if unused. Positions of bridges follow the written chain, without caps; N, C: chain ends. Non-standard residues stand in square brackets, D forms with d. Residues, ends and D or L forms follow the SMILES beside them. Chains are numbered I, II in the order given. Actinocin(9to1) = Cc1c2oc3c(C)ccc(C(=O)[*:1])c3nc-2c(C(=O)[*:2])c(N)c1=O; NMeV = CN[C@H](C(=O)O)C(C)C; Sar = CNCC(=O)O
reported_endpoint: LEUKOCYTE COUNT (x10E3/uL)
Numbers only; they are read as x10E3/uL.

Consider the reported LEUKOCYTE COUNT for these compounds:
[
  {
    "compound": "COc1cc2c3cc1Oc1cc(ccc1O)C[C@@H]1c4c(cc(OC)c(O)c4Oc4ccc(cc4)C[C@@H]3N(C)CC2)CC[N+]1(C)C.[Cl-]",
    "numeric_readout": 12.97
  },
  {
    "compound": "Cc1ccc(N(CC2=NCCN2)c2cccc(O)c2)cc1 [PHENTOLAMINE]",
    "numeric_readout": 15.62
  },
  {
    "compound": "CC[C@]1(O)C[C@H]2CN(CCc3c([nH]c4ccccc34)[C@@](C(=O)OC)(c3cc4c(cc3OC)N(C=O)[C@H]3[C@@](O)(C(=O)OC)[C@H](OC(C)=O)[C@]5(CC)C=CCN6CC[C@]43[C@@H]65)C2)C1 [VINCRISTINE]",
    "numeric_readout": 8.37
  }
]

Recorded LEUKOCYTE COUNT of Cc1c2oc3c(C)ccc(C(=O)N[C@@H]4C(=O)N[C@H](C(C)C)C(=O)N5CCC[C@H]5C(=O)N(C)CC(=O)N(C)[C@@H](C(C)C)C(=O)O[C@@H]4C)c3nc-2c(C(=O)N[C@@H]2C(=O)N[C@H](C(C)C)C(=O)N3CCC[C@H]3C(=O)N(C)CC(=O)N(C)[C@@H](C(C)C)C(=O)O[C@@H]2C)c(N)c1=O [DACTINOMYCIN] (I: T[dV]P[Sar][NMeV] / II: T[dV]P[Sar][NMeV]; ester I:1-I:C, II:1-II:C; linker I:N-II:N via Actinocin(9to1)) , please.
13.68

----------
Organism: Rattus norvegicus
Assay: DrugMatrix - Regimen: Daily Repeat
Type: toxicity, organism-based, Sprague-Dawley
Design: regimen Daily Repeat, gender Male, age 6-8 weeks
Settings: in vivo, iv, 0 mg/kg, 120 h, tissue Blood, dose level Control, time 5 day, vehicle 100 % SALINE
Starred links: 1 amine or outer side, 2 acyl side, 3 side chain; linkers in the order of their positions; H or OH if unused. Positions of bridges follow the written chain, without caps; N, C: chain ends. Non-standard residues stand in square brackets, D forms with d. Residues, ends and D or L forms follow the SMILES beside them. Chains are numbered I, II in the order given. Actinocin(9to1) = Cc1c2oc3c(C)ccc(C(=O)[*:1])c3nc-2c(C(=O)[*:2])c(N)c1=O; NMeV = CN[C@H](C(=O)O)C(C)C; Sar = CNCC(=O)O
Reported values of MEAN CORPUSCULAR HEMOGLOBIN CONCENTRATION for individual entries
Numbers only; they are read as G/DL.

Consider the reported MEAN CORPUSCULAR HEMOGLOBIN CONCENTRATION for these compounds:
[
  {
    "compound": "Cc1ccc(N(CC2=NCCN2)c2cccc(O)c2)cc1 [PHENTOLAMINE]",
    "units_of_measure": "G/DL",
    "numeric_readout": 36.47
  },
  {
    "compound": "COc1cc2c3cc1Oc1cc(ccc1O)C[C@@H]1c4c(cc(OC)c(O)c4Oc4ccc(cc4)C[C@@H]3N(C)CC2)CC[N+]1(C)C.[Cl-]",
    "units_of_measure": "G/DL",
    "numeric_readout": 40.07
  },
  {
    "compound": "Cc1c2oc3c(C)ccc(C(=O)N[C@@H]4C(=O)N[C@H](C(C)C)C(=O)N5CCC[C@H]5C(=O)N(C)CC(=O)N(C)[C@@H](C(C)C)C(=O)O[C@@H]4C)c3nc-2c(C(=O)N[C@@H]2C(=O)N[C@H](C(C)C)C(=O)N3CCC[C@H]3C(=O)N(C)CC(=O)N(C)[C@@H](C(C)C)C(=O)O[C@@H]2C)c(N)c1=O [DACTINOMYCIN] (I: T[dV]P[Sar][NMeV] / II: T[dV]P[Sar][NMeV]; ester I:1-I:C, II:1-II:C; linker I:N-II:N via Actinocin(9to1))",
    "units_of_measure": "G/DL",
    "numeric_readout": 39.5
  }
]

// next item, MEAN CORPUSCULAR HEMOGLOBIN CONCENTRATION requested
Recorded MEAN CORPUSCULAR HEMOGLOBIN CONCENTRATION of CC[C@]1(O)C[C@H]2CN(CCc3c([nH]c4ccccc34)[C@@](C(=O)OC)(c3cc4c(cc3OC)N(C=O)[C@H]3[C@@](O)(C(=O)OC)[C@H](OC(C)=O)[C@]5(CC)C=CCN6CC[C@]43[C@@H]65)C2)C1 [VINCRISTINE] , please.
38.7
